- TESTED ON: Estrogen receptor beta (Homo sapiens)
- Sequence (Q92731 whole entry): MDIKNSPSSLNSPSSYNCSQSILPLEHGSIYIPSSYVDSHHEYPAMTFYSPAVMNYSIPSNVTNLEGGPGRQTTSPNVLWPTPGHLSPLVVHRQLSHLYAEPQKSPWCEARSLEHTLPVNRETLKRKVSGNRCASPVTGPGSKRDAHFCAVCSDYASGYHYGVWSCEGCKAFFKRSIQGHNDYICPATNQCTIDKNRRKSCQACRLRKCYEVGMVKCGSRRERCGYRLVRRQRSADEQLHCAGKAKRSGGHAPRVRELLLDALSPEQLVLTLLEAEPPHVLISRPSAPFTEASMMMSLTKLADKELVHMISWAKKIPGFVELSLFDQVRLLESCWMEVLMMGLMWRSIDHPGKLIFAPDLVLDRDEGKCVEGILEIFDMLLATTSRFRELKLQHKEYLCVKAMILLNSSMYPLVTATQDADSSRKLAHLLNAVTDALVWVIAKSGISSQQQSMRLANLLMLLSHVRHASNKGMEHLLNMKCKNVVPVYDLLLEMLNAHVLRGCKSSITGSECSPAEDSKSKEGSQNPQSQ
- TEST METHOD NOTES: Displacement of fluorescein-labeled estradiol from human recombinant ERbeta at 5 uM by fluorescence polarization assay
METRIC: Activity (%)

1. CCC/C=C(\CCC)[C@@H](NC(=O)c1ccco1)c1ccc(C(=O)OC)cc1 :: 15
2. C=C(CCCC)[C@@H](NC(=O)c1ccc(-c2ccccc2)cc1)c1ccccc1 :: 8
3. C=C(CCCC)[C@@H](NC(=O)c1ccccc1)c1ccccc1 :: 9
4. CCCCCC/C=C(\C)[C@@H](NC(=O)c1cccnc1)c1ccc(-c2ccccc2)cc1 :: 6

a = CCC/C=C(\CCC)[C@@H](NS(=O)(=O)c1ccc(C(F)(F)F)cc1)c1ccccc1
b = CCC/C=C(\CCC)[C@@H](NC(=O)c1ccccc1)c1ccccc1
q: Rank a against b by their Activity values and give the higher one. Lab log: write the label of the selected item as the result.
a: a
